These data points were gathered from patent US20260234232A1.

Target: T1, human VEGFA165 (human, UniProt P15692-4 27-191)
T1 construct: Bought protein from two suppliers, treated as one molecule; the supplier is named under assay; also called antigen VEGFA
T1 sequence (P15692 other isoform, or with tags, fused parts or gaps limits assumed): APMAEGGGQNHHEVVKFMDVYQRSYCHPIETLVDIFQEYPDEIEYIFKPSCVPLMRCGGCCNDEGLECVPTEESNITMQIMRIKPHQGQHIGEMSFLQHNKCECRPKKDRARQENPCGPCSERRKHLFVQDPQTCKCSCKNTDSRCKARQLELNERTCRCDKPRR
Assay: competitive ELISA, coated VEGFA, competitor VEGFR2-ECD-Fc 1 nM
Measured metric: Maximum inhibition rate (%)
Answer format: numeric, % implied, no suffix.

Recorded results for 2 binders are shown here.
{"Binder": "V30-V40 (bispecific antibody) QLQLVESGGGSVQPGGSLRLSCEVSGRTFSSYTMGWFRQAPGKGREFVVAISKGGYKYDAVSLEARFTISKDNTKNTVYLQMNSLKPEDTAVYYCAATRAYGSSRLRLAKTYEYWGQGTQVTVSSGGGGSGGGSQLQLVESGGGSVQPGGSLRLSCEVSGRTFTSYTMGWFRQAPGKEREFVVAISKGGYKYNAVSLEARFTISKDNTKNTVYLQMNSLKPEDTAVYYCAATRAYGSSRLRLAKTYEYWGQGTQVTVSS", "Measured metric": "Maximum inhibition rate (%)", "Unit abbrev": "%", "Numeric value": 89.8}
{"Binder": "V1-V30 (bispecific antibody) QLQLVESGGGSVQPGGSLRLSCEVSGRTFSSYTMGWFRQAPGKEREFVVAISKGGYKYDSVSLEARFTISKDNTKNTVYLQMNSLKPEDTAVYYCAATRAYGSSRLRLADTYEYWGQGTQVTVSSGGGGSGGGSQLQLVESGGGSVQPGGSLRLSCEVSGRTFSSYTMGWFRQAPGKGREFVVAISKGGYKYDAVSLEARFTISKDNTKNTVYLQMNSLKPEDTAVYYCAATRAYGSSRLRLAKTYEYWGQGTQVTVSS", "Measured metric": "Maximum inhibition rate (%)", "Unit abbrev": "%", "Numeric value": 91.1}

Turning now to a further record.
Give the measured Maximum inhibition rate (%) of V1-V40 (bispecific antibody) QLQLVESGGGSVQPGGSLRLSCEVSGRTFSSYTMGWFRQAPGKEREFVVAISKGGYKYDSVSLEARFTISKDNTKNTVYLQMNSLKPEDTAVYYCAATRAYGSSRLRLADTYEYWGQGTQVTVSSGGGGSGGGSQLQLVESGGGSVQPGGSLRLSCEVSGRTFTSYTMGWFRQAPGKEREFVVAISKGGYKYNAVSLEARFTISKDNTKNTVYLQMNSLKPEDTAVYYCAATRAYGSSRLRLAKTYEYWGQGTQVTVSS .
88.5
